target: β-secretase(BACE) (Homo sapiens); construct: purchased Panvera; assay: BACE Assay-2 (FS1 substrate, IC50 and Ki); format: biochemical; settings: procedure of Example 159, FS1 substrate; read-out: Ki μM (159)
# Lookup of reported Ki keyed by entry
assayMetric: Ki (µM)

{"compound": "CN(C(=O)CC[C@@H](C1CCCCC1)N1Cc2cc(Oc3ccccc3)ccc2N=C1N)[C@H]1CC[C@H](C(=O)O)CC1", "targetEntity": "β-secretase(BACE) (Homo sapiens)", "unitName": "µM", "testValue": 0.037}
{"compound": "CC(C)CC(=O)NCC(C1CCCCC1)N1Cc2cc(Oc3ccccc3)ccc2N=C1N (stereo not shown)", "targetEntity": "β-secretase(BACE) (Homo sapiens)", "unitName": "µM", "testValue": 0.028}
{"compound": "CC(C)(C)OC(=O)NCC(C1CCCCC1)N1Cc2cc(Oc3ccccc3)ccc2N=C1N (stereo not shown)", "targetEntity": "β-secretase(BACE) (Homo sapiens)", "unitName": "µM", "testValue": 0.12}
{"compound": "CC(C)(C)C(=O)NCCN1Cc2cc(Oc3ccccc3)ccc2N=C1N", "targetEntity": "β-secretase(BACE) (Homo sapiens)", "unitName": "µM", "testValue": 0.08}
{"compound": "CN(C(=O)CCC(C1CCC(O)CC1)N1Cc2cc(Oc3ccccc3)ccc2N=C1N)C1CCCCC1 (stereo not shown)", "targetEntity": "β-secretase(BACE) (Homo sapiens)", "unitName": "µM", "testValue": 0.0084}
{"compound": "NC1=Nc2ccc(Oc3ccccc3)cc2CN1CCNC(=O)Nc1ccccc1", "targetEntity": "β-secretase(BACE) (Homo sapiens)", "unitName": "µM", "testValue": 0.32}
{"compound": "Cc1ccccc1-c1ccc2c(c1)CN(Cc1cccc(C(=O)N(C)C3CCCCC3)c1)C(N)=N2", "targetEntity": "β-secretase(BACE) (Homo sapiens)", "unitName": "µM", "testValue": 0.42}
{"compound": "CN(C(=O)CC[C@@H](C1CCCCC1)N1Cc2cc(Oc3ccccc3)ccc2N=C1N)[C@H]1CC[C@@H](C(N)=O)CC1", "targetEntity": "β-secretase(BACE) (Homo sapiens)", "unitName": "µM", "testValue": 0.061}
{"compound": "CN(C(=O)CC[C@@H](C1CCCCC1)N1Cc2c(cccc2Oc2ccccc2)N=C1N)C1CCCCC1", "targetEntity": "β-secretase(BACE) (Homo sapiens)", "unitName": "µM", "testValue": 0.656}
{"compound": "CN(C(=O)CCC(c1ccccc1)N1Cc2cc(Oc3ccccc3)ccc2N=C1N)C1CCCCC1 (stereo not shown)", "targetEntity": "β-secretase(BACE) (Homo sapiens)", "unitName": "µM", "testValue": 0.23}
{"compound": "CCCN1Cc2cc(Oc3cccc(NCC4CCCCC4)c3)ccc2N=C1N", "targetEntity": "β-secretase(BACE) (Homo sapiens)", "unitName": "µM", "testValue": 0.79}
{"compound": "COC(=O)[C@H]1CC[C@@H](N(CCO)C(=O)CC[C@@H](C2CCCCC2)N2Cc3cc(Oc4ccccc4)ccc3N=C2N)CC1", "targetEntity": "β-secretase(BACE) (Homo sapiens)", "unitName": "µM", "testValue": 0.111}
{"compound": "CCCC(CCC(=O)N(CC)C1CCCCC1)N1Cc2cc(Oc3ccccc3)ccc2N=C1N (stereo not shown)", "targetEntity": "β-secretase(BACE) (Homo sapiens)", "unitName": "µM", "testValue": 0.18}
{"compound": "NC1=Nc2ccc(Oc3ccccc3)cc2CN1C(CCNC(=O)C1CCCC1)C1CCCCC1 (stereo not shown)", "targetEntity": "β-secretase(BACE) (Homo sapiens)", "unitName": "µM", "testValue": 0.16}
{"compound": "CONC1=Nc2ccc(-c3ccccc3OC)cc2CN1Cc1cccc(C(=O)N(C)C2CCCCC2)c1", "targetEntity": "β-secretase(BACE) (Homo sapiens)", "unitName": "µM", "testValue": 0.54}
{"compound": "CN(C(=O)c1cccc(CN2Cc3cc(-c4ccsc4)ccc3N=C2N)c1)C1CCCCC1", "targetEntity": "β-secretase(BACE) (Homo sapiens)", "unitName": "µM", "testValue": 0.1}

====

# Lookup of reported % Inhibition (FS) 3 μM keyed by entry
biological target: β-secretase(BACE) (Homo sapiens, UniProt P56817); construct: purchased Panvera; test: BACE FS1% Inhibition Assay; assay type: biochemical; settings: 3 μM test compound; FS1 substrate
Sequence (P56817 46-501): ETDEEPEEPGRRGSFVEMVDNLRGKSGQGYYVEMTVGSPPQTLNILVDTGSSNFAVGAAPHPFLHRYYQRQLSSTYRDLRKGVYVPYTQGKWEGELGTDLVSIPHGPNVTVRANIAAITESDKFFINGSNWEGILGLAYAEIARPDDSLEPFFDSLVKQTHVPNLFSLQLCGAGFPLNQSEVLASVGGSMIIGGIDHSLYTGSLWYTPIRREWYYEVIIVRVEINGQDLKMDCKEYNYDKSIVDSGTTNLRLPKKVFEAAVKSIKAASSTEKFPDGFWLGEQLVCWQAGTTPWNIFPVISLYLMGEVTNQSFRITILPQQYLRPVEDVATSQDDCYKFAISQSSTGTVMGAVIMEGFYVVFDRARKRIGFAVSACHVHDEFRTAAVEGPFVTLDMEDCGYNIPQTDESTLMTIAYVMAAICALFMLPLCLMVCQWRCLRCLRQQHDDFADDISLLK
assayMetric: % Inhibition (FS) 3 μM

{"compound": "CCCC=Cc1ccc2c(c1)CN(CCNC(=O)CC1CCCC1)C(N)=N2 [Compound 580]", "targetEntity": "β-secretase(BACE) (Homo sapiens, UniProt P56817)", "testValue": "<30%"}
{"compound": "CCCCc1ccc(C(=O)NCCN2Cc3cc(Oc4ccccc4)ccc3N=C2N)cc1 [Compound 157]", "targetEntity": "β-secretase(BACE) (Homo sapiens, UniProt P56817)", "testValue": "<30%"}
{"compound": "CC1CCCCN1C(=O)CCCC(CCC(=O)N1CCCCC1C)N1Cc2cc(Oc3ccccc3)ccc2N=C1N (centres unmarked) [Compound 504]", "targetEntity": "β-secretase(BACE) (Homo sapiens, UniProt P56817)", "testValue": "96%"}
{"compound": "CC(=O)Nc1ccccc1-c1ccc2c(c1)CN(CCNC(=O)C1CCCCC1)C(N)=N2 [Compound 541]", "targetEntity": "β-secretase(BACE) (Homo sapiens, UniProt P56817)", "testValue": "<30%"}
{"compound": "NC1=Nc2ccc(-c3ccc(Cl)cc3)cc2CN1CCNC(=O)C1CCCCC1 [Compound 626]", "targetEntity": "β-secretase(BACE) (Homo sapiens, UniProt P56817)", "testValue": "56%"}
{"compound": "COc1ccc(C)cc1-c1ccc2c(c1)CN(CCNC(=O)C1CCCCC1)C(N)=N2 [Compound 630]", "targetEntity": "β-secretase(BACE) (Homo sapiens, UniProt P56817)", "testValue": "48%"}
{"compound": "CCCC=Cc1ccc2c(c1)CN(CCNC(=O)CCC)C(N)=N2 [Compound 571]", "targetEntity": "β-secretase(BACE) (Homo sapiens, UniProt P56817)", "testValue": "<30%"}
{"compound": "COc1ccccc1-c1ccc2c(c1)CN(CCNC(=O)CCCN)C(N)=N2 [Compound 494]", "targetEntity": "β-secretase(BACE) (Homo sapiens, UniProt P56817)", "testValue": "<30%"}
{"compound": "CN(C(=O)c1cccc(CN2Cc3cc(Oc4cccc(-c5ccc6ccccc6n5)c4)ccc3N=C2N)c1)C1CCCCC1 [Compound 473]", "targetEntity": "β-secretase(BACE) (Homo sapiens, UniProt P56817)", "testValue": "<30%"}
{"compound": "Cc1cccc(Nc2ccc3c(c2)CN(Cc2cccc(C(=O)N(C)C4CCCCC4)c2)C(N)=N3)c1 [Compound 435]", "targetEntity": "β-secretase(BACE) (Homo sapiens, UniProt P56817)", "testValue": "85%"}
{"compound": "NC1=Nc2ccc(-c3cncnc3)cc2CN1CCNC(=O)C1CCCCC1 [Compound 575]", "targetEntity": "β-secretase(BACE) (Homo sapiens, UniProt P56817)", "testValue": "<30%"}
{"compound": "CC(C)c1ccc(Sc2ccc3c(c2)CN(Cc2cccc(C(=O)N(C)C4CCCCC4)c2)C(N)=N3)cc1 [Compound 407]", "targetEntity": "β-secretase(BACE) (Homo sapiens, UniProt P56817)", "testValue": "48%"}
{"compound": "CN(C(=O)c1cccc(CN2Cc3cc(-c4cccc(C(=O)O)c4)ccc3N=C2N)c1)C1CCCCC1 [Compound 163]", "targetEntity": "β-secretase(BACE) (Homo sapiens, UniProt P56817)", "testValue": "<30%"}
{"compound": "NC1=Nc2ccc(Oc3ccccc3)cc2CN1C(CNC(=O)C1CCCCC1)Cc1ccc(O)cc1 (centres unmarked) [Compound 616]", "targetEntity": "β-secretase(BACE) (Homo sapiens, UniProt P56817)", "testValue": "<30%"}
{"compound": "NC1=Nc2ccc(Oc3ccccc3)cc2CN1C1CCCCN(C(=O)C2CCCCC2)C1 (centres unmarked) [Compound 551]", "targetEntity": "β-secretase(BACE) (Homo sapiens, UniProt P56817)", "testValue": "<30%"}
{"compound": "Cc1cccc(C)c1Oc1ccc2c(c1)CN(Cc1cccc(C(=O)N(C)C3CCCCC3)c1)C(N)=N2 [Compound 475]", "targetEntity": "β-secretase(BACE) (Homo sapiens, UniProt P56817)", "testValue": "<30%"}
{"compound": "CSc1ccccc1-c1ccc2c(c1)CN(CCNC(=O)C1CCCCC1)C(N)=N2 [Compound 540]", "targetEntity": "β-secretase(BACE) (Homo sapiens, UniProt P56817)", "testValue": "84%"}
{"compound": "CC(C)CC(=O)NCCN1Cc2cc(Oc3ccccc3)ccc2N=C1N [Compound 190]", "targetEntity": "β-secretase(BACE) (Homo sapiens, UniProt P56817)", "testValue": "101%"}
{"compound": "CC(C)(C)C(=O)NCCN1Cc2cc(-c3ccncc3)ccc2N=C1N [Compound 573]", "targetEntity": "β-secretase(BACE) (Homo sapiens, UniProt P56817)", "testValue": "<30%"}
{"compound": "CN(C(=O)c1cccc(CN2Cc3cc(-c4ccccc4-c4ccccc4)ccc3N=C2N)c1)C1CCCCC1 [Compound 321]", "targetEntity": "β-secretase(BACE) (Homo sapiens, UniProt P56817)", "testValue": "<30%"}
{"compound": "CN(C(=O)c1cccc(CN2Cc3cc(Oc4ccccc4C4CCCC4)ccc3N=C2N)c1)C1CCCCC1 [Compound 512]", "targetEntity": "β-secretase(BACE) (Homo sapiens, UniProt P56817)", "testValue": "51%"}
{"compound": "CN(C(=O)c1cccc(CN2Cc3cc(-c4cccc(-c5ccccc5)c4)ccc3N=C2N)c1)C1CCCCC1 [Compound 171]", "targetEntity": "β-secretase(BACE) (Homo sapiens, UniProt P56817)", "testValue": "42%"}
{"compound": "NC1=Nc2ccc(Oc3ccccc3)cc2CN1CCCNC(=O)C1CCC1 [Compound 144]", "targetEntity": "β-secretase(BACE) (Homo sapiens, UniProt P56817)", "testValue": "39%"}
{"compound": "CC(C)[C@@H](CNC(=O)C12CC3CC(CC(C3)C1)C2)N1Cc2cc(Oc3ccccc3)ccc2N=C1N [Compound 553]", "targetEntity": "β-secretase(BACE) (Homo sapiens, UniProt P56817)", "testValue": "49%"}
{"compound": "Cc1cc(C)cc(Oc2ccc3c(c2)CN(Cc2cccc(C(=O)N(C)C4CCCCC4)c2)C(N)=N3)c1 [Compound 228]", "targetEntity": "β-secretase(BACE) (Homo sapiens, UniProt P56817)", "testValue": "40%"}
{"compound": "CN(C(=O)c1cccc(CN2Cc3cc(Oc4cccc(Oc5ccccc5)c4)ccc3N=C2N)c1)C1CCCCC1 [Compound 236]", "targetEntity": "β-secretase(BACE) (Homo sapiens, UniProt P56817)", "testValue": "49%"}
{"compound": "CN1CCC(N(C)C(=O)c2cccc(CN3Cc4cc(Oc5ccccc5)ccc4N=C3N)c2)CC1 [Compound 223]", "targetEntity": "β-secretase(BACE) (Homo sapiens, UniProt P56817)", "testValue": "<30%"}
{"compound": "CN(C(=O)c1cccc(CN2Cc3cc(Oc4ccccc4C(=O)N4CCCC4)ccc3N=C2N)c1)C1CCCCC1 [Compound 483]", "targetEntity": "β-secretase(BACE) (Homo sapiens, UniProt P56817)", "testValue": "<30%"}
{"compound": "CC(C)(C)NS(=O)(=O)c1ccccc1-c1ccc2c(c1)CN(CCNC(=O)C1CCCCC1)C(N)=N2 [Compound 542]", "targetEntity": "β-secretase(BACE) (Homo sapiens, UniProt P56817)", "testValue": "73%"}
{"compound": "CCCC(CCCC(=O)N(CC)C1CCCCC1)N1Cc2cc(Oc3ccccc3)ccc2N=C1N (centres unmarked) [Compound 105]", "targetEntity": "β-secretase(BACE) (Homo sapiens, UniProt P56817)", "testValue": "<30%"}
{"compound": "Cc1cc(C(=O)NCCN2Cc3cc(-c4ccccc4)ccc3N=C2N)c(C)o1 [Compound 586]", "targetEntity": "β-secretase(BACE) (Homo sapiens, UniProt P56817)", "testValue": "59%"}
{"compound": "NC1=Nc2ccc(Oc3ccccc3)cc2CN1C1CCN(C(=O)C2CCCC2)C1 (centres unmarked) [Compound 120]", "targetEntity": "β-secretase(BACE) (Homo sapiens, UniProt P56817)", "testValue": "<30%"}

// provenance: patent US8383637B2
